Origin of measurements: patent US20180289678A1

# assay_remarks: Study .3: single dose, cross-over, food effect study in healthy volunteers, pharmacokinetic parameters
# Assay type: in vivo, human
# assay_setup: 50 mg single dose, Study .3/fed; read-out: Cmax Max

[
  {
    "compound": "OC[C@H]1O[C@@H](c2ccc(Cl)c(Cc3ccc(O[C@H]4CCOC4)cc3)c2)[C@H](O)[C@@H](O)[C@@H]1O [Compound (I.9)]",
    "Cmax": "1070 nM"
  }
]

* * *

# assay_remarks: Study .2: multiple rising dose trial in diabetic patients, once daily for 8 days, pharmacokinetic parameters
# Type: in vivo, human
# assay_setup: 2.5 mg single dose, Study .2, fasted; read-out: Cmax Max

[
  {
    "compound": "OC[C@H]1O[C@@H](c2ccc(Cl)c(Cc3ccc(O[C@H]4CCOC4)cc3)c2)[C@H](O)[C@@H](O)[C@@H]1O [Compound (I.9)]",
    "reading_unit": "nM",
    "Cmax": 81.2
  }
]

* * *

# assay_remarks: Pharmacokinetic profile in fasting humans, ranges over Studies .1 to .5
# Type: in vivo
# assay_setup: human, plasma, oral, 2.5 mg, multiple doses of 2.5 mg, read-out: Cmax,ss
quantity_measured: Cmax

[
  {
    "sample_smiles": "OC[C@H]1O[C@@H](c2ccc(Cl)c(Cc3ccc(O[C@H]4CCOC4)cc3)c2)[C@H](O)[C@@H](O)[C@@H]1O",
    "measurement": "40.3 to 96.3 nM"
  }
]

* * *

# assay_remarks: Pharmacokinetic profile in fasting humans, ranges over Studies .1 to .5
# Type: in vivo
# assay_setup: human, plasma, oral, 50 mg, single dose of 50.0 mg, read-out: Cmax
quantity_measured: Cmax

[
  {
    "molecule": "OC[C@H]1O[C@@H](c2ccc(Cl)c(Cc3ccc(O[C@H]4CCOC4)cc3)c2)[C@H](O)[C@@H](O)[C@@H]1O [Compound (I.9)]",
    "measurement": "722 to 2020 nM"
  }
]

* * *

# assay_remarks: Study .2: multiple rising dose trial in diabetic patients, once daily for 8 days, pharmacokinetic parameters
# Type: in vivo, human
# assay_setup: human, plasma, oral, 10 mg, 10 mg once daily, steady state, Study .2, fasted; read-out: tmax,ss Median
# Protocol: 5. Pharmacokinetic Parameters The pharmacokinetic parameters of pharmaceutical compositions and pharmaceutical dosage forms are assessed in healthy volunteer and patient populations. […] For the quantification of plasma concentrations of the active ingredient, 2.7 mL of blood was collected and transferred into an EDTA (ethylendiaminetetraacetic acid)-anticoagulant blood drawing tube. […] Concentrations of active substance in EDTA human plasma samples were quantitated using a HPLC/MS/MS method. […]

[
  {
    "sample_smiles": "OC[C@H]1O[C@@H](c2ccc(Cl)c(Cc3ccc(O[C@H]4CCOC4)cc3)c2)[C@H](O)[C@@H](O)[C@@H]1O",
    "Tmax (h)": 1.5
  }
]

* * *

# assay_remarks: Study .5: single dose study in healthy Japanese volunteers, pharmacokinetic parameters
# Format: in vivo, human
# assay_setup: human, plasma, oral, 25 mg, 25 mg single dose, Study .5, fasted; read-out: tmax Mean
quantity_measured: Tmax (h)

[
  {
    "sample_smiles": "OC[C@H]1O[C@@H](c2ccc(Cl)c(Cc3ccc(O[C@H]4CCOC4)cc3)c2)[C@H](O)[C@@H](O)[C@@H]1O",
    "measurement": 2.33
  }
]

* * *

# assay_remarks: Pharmacokinetic profile in fasting humans, ranges over Studies .1 to .5
# Type: in vivo
# assay_setup: human, plasma, oral, 50 mg, dose of 50.0 mg, read-out: Cmax
quantity_measured: Cmax

[
  {
    "sample_smiles": "OC[C@H]1O[C@@H](c2ccc(Cl)c(Cc3ccc(O[C@H]4CCOC4)cc3)c2)[C@H](O)[C@@H](O)[C@@H]1O",
    "measurement": "722 to 2020 nM"
  }
]
